Molecular target: T1, full-length human CD86 on HEK293 cells (human, UniProt P42081 24-329)
T1 sequence: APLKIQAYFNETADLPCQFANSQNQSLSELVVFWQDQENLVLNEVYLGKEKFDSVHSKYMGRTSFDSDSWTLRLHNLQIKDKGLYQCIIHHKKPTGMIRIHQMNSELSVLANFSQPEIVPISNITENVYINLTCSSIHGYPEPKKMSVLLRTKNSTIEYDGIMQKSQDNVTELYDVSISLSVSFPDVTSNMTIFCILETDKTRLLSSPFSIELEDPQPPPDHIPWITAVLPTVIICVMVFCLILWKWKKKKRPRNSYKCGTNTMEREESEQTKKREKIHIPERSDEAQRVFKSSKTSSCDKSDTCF
Test: cell-based or functional assay
Recorded Mean IC50 (nM), CD4+ T cell proliferation, one value per entry.
Entry rule: numbers only, all in nM.

Recorded result, D3-71-IgG2 (Fc fusion) MHVAQPAVVLASSRGIASFVCEYASPGKANEIRVTVLRQADSQVTEVCAMTYMKGDELTFLDDPSCTGTFSGNQVNLTIQGLRAMDTGLYICKVELMYPPPYYEGIGNGTQIYVIDPEPCPDSDERKCCVECPPCPAPPVAGPSVFLFPPKPKDTLMISRTPEVTCVVVDVSHEDPEVQFNWYVDGVEVHNAKTKPREEQFNSTFRVVSVLTVVHQDWLNGKEYKCKVSNKGLPAPIEKTISKTKGQPREPQVYTLPPSREEMTKNQVSLTCLVKGFYPSDIAVEWESNGQPENNYKTTPPMLDSDGSFFLYSKLTVDKSRWQQGNVFSCSVMHEALHNHYTQKSLSLSPG , Mean IC50 (nM), CD4+ T cell proliferation: 0.04

Quick note, Mean IC50 (nM), CD4+ T cell proliferation for D3-2-IgG2 (Fc fusion, also called D3-02-IgG2; D3-02) MHVAQPAVVLASSRGIASFVCEYESPGKATEIRVTVLRQAGSQVTEVCAMTYMKGDELTFLDDPSCTGTFSGNQVNLTIQGLRAADTGLYICKVELMYPPPYYLGFGNGTQIYVIDPEPCPDSDERKCCVECPPCPAPPVAGPSVFLFPPKPKDTLMISRTPEVTCVVVDVSHEDPEVQFNWYVDGVEVHNAKTKPREEQFNSTFRVVSVLTVVHQDWLNGKEYKCKVSNKGLPAPIEKTISKTKGQPREPQVYTLPPSREEMTKNQVSLTCLVKGFYPSDIAVEWESNGQPENNYKTTPPMLDSDGSFFLYSKLTVDKSRWQQGNVFSCSVMHEALHNHYTQKSLSLSPG landed at 0.03
